Numbers sourced from PubChem BioAssay (NCI).

System: KM12 colon
Assay: NCI tumour cell line growth inhibition, 48 h
*1 amine or outer side, *2 acyl side, *3 side chain or, on linkers, in order; H or OH if unused. Where a SMILES comes first, the peptide text is derived from it. Bridges are numbered along the chain shown (N, C = ends). [ ]: non-standard residue; d: D form. The star is where a group is joined. Phe(3,5-F2) = N[C@@H](Cc1cc(F)cc(F)c1)C(=O)O; Pro(4R-Me) = C[C@H]1CN[C@H](C(=O)O)C1; aThr = C[C@H](O)[C@H](N)C(=O)O; Pip = O=C(O)[C@@H]1CCCCN1; X10 = Fc1cc(C2CC2)ccc1N*; CO = O=C([*:1])[*:2]
Below, each entry is listed with its recorded TGI.
Number in µM, nothing else.

1. C=CCO[C@H]1CO[C@H]2[C@@H]1OC[C@@H]2Oc1ccc(Nc2ccnc(Nc3ccc(O[C@H]4CO[C@H]5[C@@H]4OC[C@@H]5OCC=C)c(Cl)c3)n2)cc1Cl :: 3.08

// moving on: another record for TGI
Query string: Requested read-out: TGI. Entry: C[C@@H]1C[C@H]2C(=O)O[C@@H](C)[C@H](NC(=O)[C@H](Cc3cc(F)cc(F)c3)NC(=O)Nc3ccc(C4CC4)cc3F)C(=O)N3CCC[C@H]3C(=O)N3CCCC[C@H]3C(=O)N[C@@H](C)C(=O)N2C1 ({X10-CO}-[Phe(3,5-F2)][aThr]P[Pip]A[Pro(4R-Me)]; ester 2-C)
Result string: 10.3
